- PROCEDURE_TEXT: activity coefficient (dimensionless); of the first substance listed, at infinite dilution; xn = mol fraction of the nth substance listed
- ASSAY_CONTEXT: 338.15 K; 101 kPa; Liquid; Chromatography; x1 = 0
MEASURED_QUANTITY: activity coefficient

Below, each entry is followed by its recorded activity coefficient result.
{"MOLECULE": "O [water] + CCCC[N+]1(C)CCCC1.N#C[B-](C#N)(C#N)C#N", "DATA_VALUE": 1.73}
{"MOLECULE": "C#CCCCCCC [1-octyne] + CCCC[N+]1(C)CCCC1.N#C[B-](C#N)(C#N)C#N", "DATA_VALUE": 4.88}
{"MOLECULE": "Cc1ccccc1 [toluene] + CCCC[N+]1(C)CCCC1.N#C[B-](C#N)(C#N)C#N", "DATA_VALUE": 1.14}
{"MOLECULE": "CCc1ccccc1 [ethylbenzene] + CCCC[N+]1(C)CCCC1.N#C[B-](C#N)(C#N)C#N", "DATA_VALUE": 1.6}

Recorded activity coefficient of CCOCC [diethyl ether] + CCCC[N+]1(C)CCCC1.N#C[B-](C#N)(C#N)C#N , please.
2.34

And for CCC(=O)CC [pentan-3-one] + CCCC[N+]1(C)CCCC1.N#C[B-](C#N)(C#N)C#N ?
0.688

And for CCCCCCCCC [nonane] + CCCC[N+]1(C)CCCC1.N#C[B-](C#N)(C#N)C#N ?
38.2

And for c1ccccc1 [benzene] + CCCC[N+]1(C)CCCC1.N#C[B-](C#N)(C#N)C#N ?
0.836

And for C1CCCC1 [cyclopentane] + CCCC[N+]1(C)CCCC1.N#C[B-](C#N)(C#N)C#N ?
5.27

And for CCCCCCC [heptane] + CCCC[N+]1(C)CCCC1.N#C[B-](C#N)(C#N)C#N ?
19.8

And for C=CCCCCCCCC [1-decene] + CCCC[N+]1(C)CCCC1.N#C[B-](C#N)(C#N)C#N ?
27.1

And for CC(C)CC(C)(C)C [2,2,4-trimethylpentane] + CCCC[N+]1(C)CCCC1.N#C[B-](C#N)(C#N)C#N ?
23.5

And for Cc1cccc(C)c1 [1,3-dimethylbenzene] + CCCC[N+]1(C)CCCC1.N#C[B-](C#N)(C#N)C#N ?
1.59
